System: human hepatocytes
Assay: Intrinsic clearance in human hepatocytes (relay method)
Format: in vitro ADME
Details: relay hepatocyte assay, 1 μM test compound, mean +/− Std Dev
Parameter: CLint (+/−Std Dev)

Below are worked cases with known answers.
{"Compound": "CCOc1cccnc1Oc1cncc(-c2ncc(C(=O)NC3(CO)CCOC3)cn2)c1 (single isomer, unassigned) [WO2018033832 Ex. 6a]", "CLint (+/−Std Dev)": "3.2 +/− 0.21 μL/min/million cells"}
{"Compound": "CCOc1cccnc1Oc1cncc(-c2ncc(C(=O)NC3(CO)CCOC3)cn2)c1 (single isomer, unassigned) [WO2018033832 Ex. 6b]", "CLint (+/−Std Dev)": "2.9 +/− 0.057 μL/min/million cells"}
{"Compound": "CCOc1cccnc1Oc1cncc(-c2ncc(C(=O)N[C@H]3CCOC3)cn2)c1 [WO2018033832 Ex. 1]", "CLint (+/−Std Dev)": "3.9 +/− 0.52 μL/min/million cells"}

QUERY: Name the recorded CLint (+/−Std Dev) for CCOc1cccnc1Oc1cncc(-c2ncc(C(=O)N[C@@H]3CCOC3)cn2)c1 [WO2018033832 Ex. 2] .
RESULT: 4.9 +/− 0.17 μL/min/million cells

----------
Experiment: High throughput determination of intrinsic clearance in human hepatocytes
Format: in vitro ADME
Settings: human, pooled cryopreserved human hepatocytes (suspension), high throughput human hepatocyte assay, 1 μM test compound; mean +/− Std Dev
Structures can show the parent of a compound that is named as a salt.
Parameter: hepatocyte CLint at 1 μM (µL/min/1e6 cells)
Respond with the bare value in µL/min/1e6 cells.

QUERY: Which hepatocyte CLint at 1 μM value belongs to CCOc1cccnc1Oc1cncc(-c2ncc(C(=O)N[C@H]3CC[C@H](C(F)(F)F)NC3)cn2)c1 (racemic) [Example 9] ?
RESULT: 54

QUERY: What do you get for CCOc1cc(F)cnc1Oc1cncc(-c2ncc(C(=O)N[C@@H]3CNCC[C@H]3F)cn2)c1 [Example 6] ?
RESULT: 4.7

QUERY: Another compound to check: CCOc1cccnc1Oc1cncc(-c2ncc(C(=O)N[C@H]3CNCCC3(F)F)cn2)c1 (single isomer, unassigned) [Example 15, trifluoroacetate salt]
RESULT: 5.3

QUERY: Same again, this time with CCOc1cc(F)cnc1Oc1cncc(-c2ncc(C(=O)N[C@H]3CNCC[C@@H]3F)cn2)c1 [Example 13, formate salt]
RESULT: 12

----------
Assay: High throughput determination of intrinsic clearance in human hepatocytes
Format: in vitro ADME
Conditions: human, pooled cryopreserved human hepatocytes (suspension), high throughput human hepatocyte assay, 1 μM test compound; mean +/− Std Dev
Listed here are compounds together with their documented hepatocyte CLint at 1 μM.
The figure you give is taken to be in µL/min/1e6 cells; do not add the unit.

Before answering, review these 2 worked examples.
{"Compound": "CCOc1cc(F)cnc1Oc1cncc(-c2ncc(C(=O)N[C@@H]3CNC[C@@H](F)C3)cn2)c1 [Example 2]", "Unit annotation": "µL/min/1e6 cells", "hepatocyte CLint at 1 μM": 3.6}
{"Compound": "CCOc1cccnc1Oc1cncc(-c2ncc(C(=O)NC3CNCC(F)(F)C3)cn2)c1 (stereo not shown) [Example 17]", "Unit annotation": "µL/min/1e6 cells", "hepatocyte CLint at 1 μM": 8.3}

Proceeding to the next compound to report its hepatocyte CLint at 1 μM.
QUERY: Can you share its hepatocyte CLint at 1 μM? I mean this compound: CCOc1cccnc1Oc1cncc(-c2ncc(C(=O)NC3CCC(C(F)(F)F)NC3)cn2)c1 (single isomer, unassigned; ent-1) [Example 10]
RESULT: 27
